This listing pairs compounds with measured combination Emax.
- Test system: MFE-280 (Endometrial Carcinoma)
- Assay explanation: combination Emax (second highest fraction inhibited in the dose matrix, 72 h); higher = more inhibition; extreme values may be limits of the assay
# output: bare number, no unit

Reference set (3 entries):
Cn1cnc2c(F)c(Nc3ccc(Br)cc3Cl)c(C(=O)NOCCO)cc21 [Selumetinib] + CCN(CCO)CCCOc1ccc2c(Nc3cc(CC(=O)Nc4cccc(F)c4)[nH]n3)ncnc2c1 [AZD2811] (first compound max 10 µM, 7x7, partner max 1 µM)	0.161
C[C@@H]1COCCN1c1cc(C2([S@](C)(=N)=O)CC2)nc(-c2ccnc3[nH]ccc23)n1 [AZD6738] + Nc1ccn([C@@H]2O[C@H](CO)[C@@H](O)C2(F)F)c(=O)n1 [Gemcitabine] (first compound max 10 µM, 7x7, partner max 0.3 µM)	0.864
Cc1cc2ncnn2cc1Nc1ncc2c(n1)n(C1CCOCC1)c(=O)n2C [AZD7648] + CN(C)CCCOc1ccc(-c2ccc3ncc4c(c3c2)n(C2CCOCC2)c(=O)n4C)cn1 [AZD0156] (first compound max 10 µM, 7x7, partner max 1 µM)	0.359

Here's the next entry for you.
Data request, read-out combination Emax, for COc1cccc(OCCCN)c1-c1cc(Nc2cnc(C#N)cn2)n[nH]1 [Prexasertib] + Cc1cc2ncnn2cc1Nc1ncc2c(n1)n(C1CCOCC1)c(=O)n2C [AZD7648] (first compound max 1 µM, 7x7, partner max 10 µM)
0.405

---

- Tested on: VAL (B-Cell Non-Hodgkin's Lymphoma)
- Assay explanation: combination Emax (second highest fraction inhibited in the dose matrix, 72 h); higher = more inhibition; extreme values may be limits of the assay
Quantity name: combination Emax

Cc1c2c(nn1C)CSCc1cc(n(C)n1)CSc1cc(c3ccccc3c1)OCCCc1c(C(=O)O)n(C)c3c-2c(Cl)ccc13 [AZD5991] + Cc1cc2ncnn2cc1Nc1ncc2c(n1)n(C1CCOCC1)c(=O)n2C [AZD7648] (first compound max 1 µM, 7x7, partner max 10 µM)	0.744

Here's the next entry for you.
Data request, read-out combination Emax, for CN(CCO)CC[C@H](CSc1ccccc1)Nc1ccc(S(=O)(=O)NC(=O)c2ccc(N3CCC([C@@H](O)c4ccccc4-c4ccc(Cl)cc4)CC3)cc2)cc1S(=O)(=O)C(F)(F)F [AZD4320] + C=CCn1c(=O)c2cnc(Nc3ccc(N4CCN(C)CC4)cc3)nc2n1-c1cccc(C(C)(C)O)n1 [AZD1775] (first compound max 1 µM, partner max 1 µM)
1

---

- System: REH (B-Lymphoblastic Leukemia);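 further: after 72 h of two-drug dosing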
- Assay explanation: Bliss excess, mean over the matrix (fraction); higher = more synergy
This listing pairs compounds with measured Bliss excess.

Reference set (2 entries):
CC1(C)CCC(CN2CCN(c3ccc(C(=O)NS(=O)(=O)c4ccc(NCC5CCOCC5)c([N+](=O)[O-])c4)c(Oc4cnc5[nH]ccc5c4)c3)CC2)=C(c2ccc(Cl)cc2)C1 [Venetoclax] + C=CCn1c(=O)c2cnc(Nc3ccc(N4CCN(C)CC4)cc3)nc2n1-c1cccc(C(C)(C)O)n1 [AZD1775] (first compound max 1 µM, partner max 1 µM)	0.0623
C[C@@H](Oc1cc(-c2cnn(C3CCNCC3)c2)cnc1N)c1c(Cl)ccc(F)c1Cl [Crizotinib] + Cn1cnc2c(F)c(Nc3ccc(Br)cc3Cl)c(C(=O)NOCCO)cc21 [Selumetinib] (first compound max 10 µM, 7x7, partner max 10 µM)	-0.0309

Data request, read-out Bliss excess, for C=CCn1c(=O)c2cnc(Nc3ccc(N4CCN(C)CC4)cc3)nc2n1-c1cccc(C(C)(C)O)n1 [AZD1775] + CCc1c2c(nc3ccc(O)cc13)-c1cc3c(c(=O)n1C2)COC(=O)[C@]3(O)CC [SN-38] (first compound max 1 µM, partner max 0.3 µM)
-0.0887

Check COc1cccc(OCCCN)c1-c1cc(Nc2cnc(C#N)cn2)n[nH]1 [Prexasertib] + C=CCn1c(=O)c2cnc(Nc3ccc(N4CCN(C)CC4)cc3)nc2n1-c1cccc(C(C)(C)O)n1 [AZD1775] (first compound max 1 µM, partner max 1 µM) too.
0.114

Check CC(=O)c1c(C)c2cnc(Nc3ccc(N4CCNCC4)cn3)nc2n(C2CCCC2)c1=O [Palbociclib] + Cn1cnc2c(F)c(Nc3ccc(Br)cc3Cl)c(C(=O)NOCCO)cc21 [Selumetinib] (first compound max 10 µM, 7x7, partner max 10 µM) too.
-0.0229
